Assay: Quantitative High-Throughput drug screen in 47 multiple myeloma cell lines against the NCATS MIPE library collection: FR4_PLB cell viability assay (AID 1918924; note: nearly all actives have a fitted effect of over 35% in size)
Details: FR4_PLB myeloma cells viability, CellTiter-Glo ATP, 48 h; series mostly up to 45.8 µM
Description: PI: Beverly A. Mock Ph.D. Laboratory of Cancer Biology and Genetics, Center for Cancer Research, National Cancer Institute, National Institute of Health, Bethesda, Maryland […] 5; Detector; 425V; Luminescence; Viewlux PerkinElmer. […] 1. […] Briefly, the corresponding myeloma cell lines were screened in 1,536-well plates with 500 cells, 5-uL per well for inhibition of cell viability (assessed by measuring ATP levels with CellTiterGlo). […]
Results filed as inconclusive are left out. The source made the active and inactive calls. Calls come from the whole dose curve; as a rule, active = well fitted cell-killing curve with a large enough effect; inconclusive = small, poorly fitted or top-dose-only effect, or effect the other way; inactive = no such curve, though single readings can be large or run the other way.
Would you mind answering with one of these outcomes? 1 (yes) (active), 0 (no) (inactive)

Consider the worked cases shown below.
compound	class_label
O=C(O)[C@H]1O[C@H](Oc2cc3oc(-c4ccccc4)cc(=O)c3c(O)c2O)[C@H](O)[C@@H](O)[C@H]1O	1 (yes)
Cc1nnc(C(C)C)n1C1C[C@H]2CC[C@@H](C1)N2CC[C@H](NC(=O)C1CCC(F)(F)CC1)c1ccccc1 (some centres not stated)	0 (no)
Cc1c(O)cccc1C(=O)N[C@@H](CSc1ccccc1)[C@H](O)CN1C[C@H]2CCCC[C@@H]2C[C@@H]1C(=O)NC(C)(C)C	1 (yes)

Kindly consider the entry below.
State the result this test recorded for COc1ccc(C2Sc3ccccc3N(CCN(C)C)C(=O)C2OC(C)=O)cc1 (configuration not stated) . 0 (no)

----------
Assay: High-throughput drug toxicity screening in the BPDCN cell line Cal-1 (AID 1224825);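 note: cells exposed to compounds for 48 h; 100% = DMSO and 0% = bortezomib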
Conditions: Cal-1 BPDCN cell viability, qHTS; at 45.8 µM (top of the series) unless noted
From the text: Blastic plasmacytoid dendritic cell neoplasm (BPDCN) is a rare, aggressive and largely incurable hematologic malignancy originating from plasmacytoid dendritic cells (pDCs). Although an initial response to chemotherapy is common, BPDCN prognosis is extremely poor and most patients relapse with drug-resistant disease leading to a median overall survival of ~1 year after diagnosis. […]
Please assign no (0) whenever viability (% of control) is at or above 10%, and yes (1) whenever it is below.

Is the reported viability (% of control) for `NC(=O)c1cccc(-c2cc(Nc3ccc(OC(F)(F)F)cc3)ncn2)c1` strictly below 10%? no (0)

Do the same for CNC1CCC(N(Cc2cccc(-c3ccncc3)c2)C(=O)c2sc3c(F)ccc(F)c3c2Cl)CC1 (configuration not stated) please yes (1)

Do the same for `c1ccc2c(Cc3c[nH]c4ccccc34)c[nH]c2c1` please no (0)

Do the same for Clc1ccc(CCC(Cn2ccnc2)Sc2c(Cl)cccc2Cl)cc1 (configuration not stated) please no (0)

Do the same for O=C(NOCC(O)CO)c1cc(Br)c(F)c(F)c1Nc1ccc(I)cc1F (configuration not stated) please no (0)

Do the same for `CO[C@H]1C[C@@H]2CC[C@@H](C)[C@@](O)(O2)C(=O)C(=O)N2CCCC[C@@H]2C(=O)O[C@H]([C@H](C)C[C@@H]2CC[C@H](OP(C)(C)=O)[C@H](OC)C2)CC(=O)[C@H](C)C=C(C)[C@@H](O)[C@@H](OC)C(=O)[C@H](C)C[C@H](C)C=CC=CC=C1C` please yes (1)

Do the same for `Cc1c(NC(=O)c2ccc(C(C)(C)C)cc2)cccc1-c1cn(C)c(=O)c(Nc2ccc(C(=O)N3CCOCC3)cc2)n1` please no (0)

Do the same for COc1ccc(-c2oc3c(CC=C(C)C)c(OC4O[C@H](CO)[C@@H](O)[C@H](O)[C@@H]4O)cc(O)c3c(=O)c2OC2O[C@@H](C)[C@H](O)[C@@H](O)[C@@H]2O)cc1 (some centres not stated) please no (0)

Do the same for Cc1ccc(C(C)(O)c2nc3ccccc3s2)c(C)c1 (configuration not stated) please yes (1)

Do the same for `COc1ncc(-c2ccc3nccc(-c4ccnnc4)c3c2)cc1NS(=O)(=O)c1ccc(F)cc1F` please yes (1)

Do the same for `CC#CCn1c(N2CCC[C@@H](N)C2)nc2c1c(=O)n(Cc1nc(C)c3ccccc3n1)c(=O)n2C` please no (0)

Do the same for `CC(C)OC(=O)CCCC=CC[C@@H]1[C@H](C=C[C@@H](O)COc2cccc(C(F)(F)F)c2)[C@H](O)C[C@@H]1O` please no (0)

Do the same for `CCc1ccc(C=C2SC(=S)NC2=O)cc1` please no (0)
